Molecular target: Inhibitor of nuclear factor kappa-B kinase subunit alpha (Homo sapiens)
Details: at 1 µM
// NB: equality with 90% counts as Not satisfied; only residual activity strictly below is Satisfied

Answered examples (3):
test smiles	category
COc1cc2c(cc1OC)-c1n[nH]c(Nc3cccc(F)c3)c1C2	Not satisfied
O=C(O)/C=C/c1cc(Br)c(Br)c(Br)c1Br	Not satisfied
N#C/C(=C\c1ccc(O)c(O)c1)C(=O)NCc1ccccc1	Not satisfied

Please examine the following record next.
I wonder whether "COc1ccc2c(c1)c(C1=C(c3c[nH]c4ccccc34)C(=O)NC1=O)cn2CCCN(C)C" has residual activity below 90%. Can you tell?
Satisfied
